Give T/C for every item shown.
Tested on: L1210 leukemia ip in BDF1 mice, survival T/C
Test: NCI In Vivo Anticancer Drug Screen. Data for tumor model L1210 Leukemia (intraperitoneal) in B6D2F1 (BDF1) mice
Settings: endpoint: mean survival time; dose: 400.0 mg/kg/injection; schedule: Q01DX009 (ip); vehicle: saline; higher = longer survival
Toxic doses and inconclusive results are not listed.

Request - read-out T/C | tested on L1210 leukemia ip in BDF1 mice, survival T/C | compound COC(=O)CC(O)C(=O)OC (stereo not drawn)
96 % of control

Notebook entry, L1210 leukemia ip in BDF1 mice, survival T/C assay: T/C of CC1=CCC2(C)C(=O)C1CC1=C2CC(C)(C)CC1=O (stereo not drawn) = ?
101 % of control

T/C of NC(=O)CC(N)C(=O)O (stereo not drawn) on L1210 leukemia ip in BDF1 mice, survival T/C?
103 % of control

Record NC(=O)C(N)CSCc1ccccc1 (stereo not drawn) : what is its T/C with L1210 leukemia ip in BDF1 mice, survival T/C?
91 % of control

Hi! What's the reported T/C for COc1cc(N)c2ncccc2c1SC on L1210 leukemia ip in BDF1 mice, survival T/C?
116 % of control

What is its T/C for L1210 leukemia ip in BDF1 mice, survival T/C? Entry: COc1ccc(CN(CCO)C(C)=O)cc1
103 % of control

Request: T/C, test system L1210 leukemia ip in BDF1 mice, survival T/C, entry COc1ccc(/C=C2\CSC/C(=C/c3ccc(OC)cc3)C2=O)cc1
87 % of control

Please state recorded T/C (tested on L1210 leukemia ip in BDF1 mice, survival T/C) of Cc1ccc2ccc(-c3ccccc3)nc2c1
92 % of control
